pKi values recorded for UniProtKB Q9Y5N1
Sequence (Q9Y5N1 whole entry): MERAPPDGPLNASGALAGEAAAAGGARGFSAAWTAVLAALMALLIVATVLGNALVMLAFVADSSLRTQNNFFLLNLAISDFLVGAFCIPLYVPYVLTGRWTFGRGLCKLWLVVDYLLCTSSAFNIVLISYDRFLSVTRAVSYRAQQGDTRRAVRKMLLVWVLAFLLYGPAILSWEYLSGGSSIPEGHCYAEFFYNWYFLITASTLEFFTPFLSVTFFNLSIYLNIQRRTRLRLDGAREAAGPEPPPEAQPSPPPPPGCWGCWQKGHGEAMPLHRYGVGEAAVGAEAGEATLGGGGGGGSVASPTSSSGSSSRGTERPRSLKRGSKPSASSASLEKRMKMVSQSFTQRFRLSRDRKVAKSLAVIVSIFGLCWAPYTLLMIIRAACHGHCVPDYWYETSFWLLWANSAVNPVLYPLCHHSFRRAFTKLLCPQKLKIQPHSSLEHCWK
The scale used: pKi is minus the common logarithm of the concentration in molar units.

- Smiles Record: "F[C@@H]1CCN(Cc2ccc(OCCCN3CCCCC3)cc2)C1"
  pKi: 9.55
- Smiles Record: "N#Cc1ccc(OCCCN2CCCCC2)cc1"
  pKi: 7.96
- Smiles Record: "ClC1CCN(Cc2ccc(OCCCN3CCCCC3)cc2)CC1"
  pKi: 10.17
- Smiles Record: "BrC1CCN(Cc2ccc(OCCCN3CCCCC3)cc2)CC1"
  pKi: 9.70
- Smiles Record: "FC1CCN(CCCOc2ccc(CN3CCCC3)cc2)CC1"
  pKi: 9.00

Request the reported pKi associated with FCc1ccc(OCCCN2CCCCC2)cc1
7.76

Can you check FC1(F)CCN(Cc2ccc(OCCCN3CCCCC3)cc2)CC1 next?
9.62
